Target: PTPN2 (B16F10.4 cells) (Mus musculus, UniProt Q06180)
Construct: HiBiT; host or cells: B16F10.4
Sequence (Q06180 whole entry): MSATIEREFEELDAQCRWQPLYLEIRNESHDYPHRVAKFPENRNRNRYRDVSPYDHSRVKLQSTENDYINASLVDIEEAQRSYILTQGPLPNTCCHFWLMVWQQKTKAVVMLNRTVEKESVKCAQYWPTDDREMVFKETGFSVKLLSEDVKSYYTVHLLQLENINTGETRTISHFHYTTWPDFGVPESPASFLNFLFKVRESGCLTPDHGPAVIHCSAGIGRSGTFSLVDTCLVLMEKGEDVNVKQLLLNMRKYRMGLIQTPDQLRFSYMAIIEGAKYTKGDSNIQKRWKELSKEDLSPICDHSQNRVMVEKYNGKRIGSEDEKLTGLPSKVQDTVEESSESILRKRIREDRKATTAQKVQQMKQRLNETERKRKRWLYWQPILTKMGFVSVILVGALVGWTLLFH
Method Summary: HiBiT Degradation B16F10.4 PTPN2
Type: cell-based
Test Parameters: 24.0 hours
Readout: DC50

CC1(C)C[C@@H](Nc2cccc(-c3sc(C(=O)O)c(OCC(=O)O)c3Cl)c2)CCN1S(=O)(=O)Cc1cccc(NC(=O)N2CCC(c3ccc4c5c(cccc35)C(=O)N4C3CCC(=O)NC3=O)CC2)c1 (stereo partly drawn) : < 50 nM
Cn1c(=O)n(C2CCC(=O)NC2=O)c2ccc([C@@H]3CCN(C(=O)Nc4cccc(CS(=O)(=O)N5CC[C@H](Nc6cccc(-c7sc(C(=O)O)c(OCC(=O)O)c7Cl)c6)CC5(C)C)c4)CC3(F)F)cc21 (stereo partly drawn) : < 50 nM
Cn1c(=O)n(C2CCC(=O)NC2=O)c2ccc(C3CCN(C(=O)Nc4cccc(CS(=O)(=O)N5CC[C@H](Nc6cccc(-c7sc(C(=O)O)c(OCC(=O)O)c7Cl)c6)CC5(C)C)c4)CC3)c(Cl)c21 (stereo partly drawn) : 50 to 200 nM
Cn1c(=O)n(C2CCC(=O)NC2=O)c2ccc(N3CCC(N4CCN(c5cccc(CS(=O)(=O)N6CC[C@H](Nc7cccc(-c8sc(C(=O)O)c(OCC(=O)O)c8Cl)c7)CC6(C)C)c5)C4=O)CC3)cc21 (stereo partly drawn) : 50 to 200 nM
CC1(C)C[C@@H](Nc2cccc(-c3sc(C(=O)O)c(OCC(=O)O)c3Cl)c2)CCN1S(=O)(=O)Cc1cccc(NC(=O)[C@H]2CC[C@@H](c3ccc4c5c(cccc53)C(=O)N4C3CCC(=O)NC3=O)CC2)c1 (stereo partly drawn) : 50 to 200 nM
O=C(O)COc1c(C(=O)O)sc(-c2cccc(NC3CCN(S(=O)(=O)Cc4cccc(NC(=O)CCOCCCc5cccc6c5C(=O)N(C5CCC(=O)NC5=O)C6=O)c4)CC3)c2)c1Cl (stereo not drawn) : ≥ 1000 nM
Cn1c(=O)n(C2CCC(=O)NC2=O)c2ccc(C3CCN(C(=O)Nc4cc(CS(=O)(=O)N5CCC(Nc6cccc(-c7sc(C(=O)O)c(OCC(=O)O)c7Cl)c6)CC5)ccc4F)CC3)cc21 (stereo not drawn) : < 50 nM
Cn1c(=O)n(C2CCC(=O)NC2=O)c2ccc(C3CCN(C(=O)Nc4cccc(CS(=O)(=O)N5CC[C@@H](Nc6cccc(-c7sc(C(=O)O)c(OCC(=O)O)c7Cl)c6)CC56CC6)c4)CC3)cc21 (stereo partly drawn) : 50 to 200 nM
Cn1c(=O)n(C2CCC(=O)NC2=O)c2cccc(C3CCN(C(=O)Nc4cccc(CS(=O)(=O)N5CCC(Nc6cccc(-c7sc(C(=O)O)c(OCC(=O)O)c7Cl)c6)CC5)c4)CC3)c21 (stereo not drawn) : 200 to 1000 nM
